Test: Solubility of dutasteride in oil (Test Example 1)
Format: physicochemical
Conditions: oil or lipid, thermodynamic from solid; in Propylene Glycol Monolaurate; room temperature (25° C.), stirring for 24 hours

{"COMPOUND": "C[C@]12C=CC(=O)N[C@@H]1CC[C@@H]1[C@@H]2CC[C@]2(C)[C@@H](C(=O)Nc3cc(C(F)(F)F)ccc3C(F)(F)F)CC[C@@H]12 [Dutasteride]", "solubility at 24 h, mg/mL": 10.4}

###

Assay: Solubility of dutasteride in oil (Test Example 1)
Format: physicochemical
Details: oil or lipid, thermodynamic from solid; in Propylene Glycol Dicaprate; room temperature (25° C.), stirring for 24 hours

{"MOLECULE": "C[C@]12C=CC(=O)N[C@@H]1CC[C@@H]1[C@@H]2CC[C@]2(C)[C@@H](C(=O)Nc3cc(C(F)(F)F)ccc3C(F)(F)F)CC[C@@H]12 [Dutasteride]", "DISPLAY UNIT": "mg/mL", "solubility at 24 h": 0.77}

Reference for the values: patent US10512654B2
